Reference for the values: ChEMBL document CHEMBL5058577

system: HEK-293T; test: Multiplex assay against HEK293T; type: toxicity, cell-based; conditions: human, 12 h, 10 µM, compound concentration 10 uM, replicate 2
Could you mark each record Fulfilled if its Population Hoechst High Intensity Objects (%) falls strictly under 10%, and Not fulfilled if it equals or exceeds it?

Some entries whose results are on file:
1) c1cc(OCCCN2CCCCC2)ccc1CN1CCCCC1 | Not fulfilled
2) COc1cc(NC(=O)CCN2CCC(OC(=O)Nc3ccccc3-c3ccccc3)CC2)c(Cl)cc1CNC[C@H](O)c1ccc(O)c2[nH]c(=O)ccc12 | Not fulfilled
3) C[C@@H]1C[C@H]2[C@@H]3CCC4=CC(=O)C=C[C@]4(C)[C@@]3(F)[C@@H](O)C[C@]2(C)[C@@]1(O)C(=O)CO | Not fulfilled

*Q* API: query returns whether the compound falls strictly under 10% in Population Hoechst High Intensity Objects (%). Query: CCCn1c(=O)c2[nH]c(C3CCCC3)nc2n(CCC)c1=O
*A* Not fulfilled

*Q* API: query returns whether the compound falls strictly under 10% in Population Hoechst High Intensity Objects (%). Query: Cl.Clc1ccc2nsnc2c1NC1=NCCN1 [TIZANIDINE HYDROCHLORIDE]
*A* Fulfilled

*Q* API: query returns whether the compound falls strictly under 10% in Population Hoechst High Intensity Objects (%). Query: Cc1ccc(/C(=C\CN2CCCC2)c2ccccn2)cc1
*A* Fulfilled

*Q* API: query returns whether the compound falls strictly under 10% in Population Hoechst High Intensity Objects (%). Query: CCNC1(C(N)=O)CCN(c2ncnc3c2nc(-c2ccccc2Cl)n3-c2ccc(Cl)cc2)CC1
*A* Fulfilled

*Q* API: query returns whether the compound falls strictly under 10% in Population Hoechst High Intensity Objects (%). Query: COc1ccccc1N1CCN(CCCCNC(=O)c2ccc3ccccc3c2)CC1.Cl
*A* Not fulfilled

* * *

tested on: U2OS; test: Multiplex assay against U2OS; assay type: toxicity, cell-based; details: human, 12 h, 10 µM, compound concentration 10 uM, replicate 1
Measured Endpoint: Population Mitochondria Different-Phenotype (%)

1) CCOc1c2c(c(OCC)c3ncccc13)CN(c1ccc(CS(=O)(=O)NC(=O)Cc3ccccc3OC)cc1C)C2=O | 3%
2) O=C(O)Cc1ccccc1Nc1c(Cl)cccc1Cl | 4%

*Q* GET /values?readout=Population Mitochondria Different-Phenotype (%)&item= CSCC[C@H](NC=O)C(=O)N[C@@H](CC(C)C)C(=O)N[C@@H](Cc1ccccc1)C(=O)O
*A* 1%

*Q* GET /values?readout=Population Mitochondria Different-Phenotype (%)&item= CC[C@H]1OC(=O)[C@H](C)[C@@H](O[C@H]2C[C@@](C)(OC)[C@@H](O)[C@H](C)O2)[C@H](C)[C@@H](O[C@@H]2O[C@H](C)C[C@H](N(C)C)[C@H]2O)[C@@]2(C)CC(C)=C(O2)[C@H](C)[C@@H](O)[C@]1(C)O
*A* 63%

*Q* GET /values?readout=Population Mitochondria Different-Phenotype (%)&item= O=C(O)c1cc2ccccc2c(Cc2c(O)c(C(=O)O)cc3ccccc23)c1O
*A* 1%

*Q* GET /values?readout=Population Mitochondria Different-Phenotype (%)&item= Oc1c(CN2CCN(c3ccccn3)CC2)cc(Cl)c2cccnc12
*A* 28%

*Q* GET /values?readout=Population Mitochondria Different-Phenotype (%)&item= C[C@H](NC(=O)c1c(C(F)F)nn(C)c1Oc1cccc(C(F)(F)F)c1)c1ccc(C(=O)O)cc1
*A* 4%

*Q* GET /values?readout=Population Mitochondria Different-Phenotype (%)&item= COc1cc(NC(=O)CCN2CCC(OC(=O)Nc3ccccc3-c3ccccc3)CC2)c(Cl)cc1CNC[C@H](O)c1ccc(O)c2[nH]c(=O)ccc12
*A* 67%

* * *

system: HEK-293T; assay: Multiplex assay against HEK293T; type: toxicity, cell-based; conditions: human, 24 h, 1 µM, compound concentration 1 uM, replicate 2
Measured Endpoint: Population Apoptotic (%)
// units = %; emit number, no label

Below: 3 compounds and their reported Population Apoptotic (%).
1. CN1CCN(c2nc3cc(C(F)(F)F)ccc3n3cccc23)CC1.O=C(O)/C=C\C(=O)O.O=C(O)/C=C\C(=O)O | 54
2. Cc1ccccc1C(=O)Nc1ccc(C(=O)N2CCCC(N(C)C)c3ccccc32)cc1.Cl (stereo not given) | 30
3. O=C(NCCO)c1cccc(-c2cc(Nc3ccc(OC(F)(F)F)cc3)ncn2)c1 | 41

*Q* GET /values?readout=Population Apoptotic (%)&item= CC1(COc2ccc3c(c2)ncn3-c2ccc3cccc(N4CCC(N)CC4)c3n2)COC1
*A* 45

*Q* GET /values?readout=Population Apoptotic (%)&item= CCCC(CCC)C(=O)O
*A* 45

* * *

test system: U2OS; assay: Multiplex assay against U2OS; format: toxicity, cell-based; details: human, 48 h, 10 µM, compound concentration 10 uM, replicate 2
molecules and their reported Population Healthy Nuclei (%)
In your response, put the unit directly after the numeric value.

Below: 2 molecules and their reported Population Healthy Nuclei (%).
1) C[C@H](NC(=O)c1c(C(F)F)nn(C)c1Oc1cccc(C(F)(F)F)c1)c1ccc(C(=O)O)cc1 | 79%
2) Cc1ccc(/C(=C\CN2CCCC2)c2ccccn2)cc1 | 74%

Moving on to the next molecule.
*Q* GET /values?readout=Population Healthy Nuclei (%)&item= c1cc(OCCCN2CCCCC2)ccc1CN1CCCCC1
*A* 78%

* * *

test system: Fibroblast; test: Multiplex assay against human fibroblast; assay type: toxicity, cell-based; conditions: 48 h, 1 µM, compound concentration 1 uM, replicate 1
Measured Endpoint: Population Tubulin-Different-Phenotype (%)
// units = %; emit number, no label

1. Cc1nc2ccc(Oc3ccc(F)cc3)cc2c(=O)n1C[C@H]1CCCN(C(C)C)C1.Cl | 33

*Q* GET /values?readout=Population Tubulin-Different-Phenotype (%)&item= CN1CCN2c3ncccc3Cc3ccccc3C2C1 (stereo not drawn) [MIRTAZAPINE]
*A* 31

*Q* GET /values?readout=Population Tubulin-Different-Phenotype (%)&item= O=C(NCC(=O)N1CC[C@H](N[C@H]2CC[C@@](O)(c3ccc(-c4ncccn4)cn3)CC2)C1)c1cccc(C(F)(F)F)c1 [PF-4136309]
*A* 27

*Q* GET /values?readout=Population Tubulin-Different-Phenotype (%)&item= CN(C)CCCc1cc(C(=O)Nc2ccc(-c3ccncc3)cc2)ccc1O.Cl.Cl
*A* 29

*Q* GET /values?readout=Population Tubulin-Different-Phenotype (%)&item= CSCC[C@H](NC=O)C(=O)N[C@@H](CC(C)C)C(=O)N[C@@H](Cc1ccccc1)C(=O)O
*A* 21

*Q* GET /values?readout=Population Tubulin-Different-Phenotype (%)&item= N[C@@]1(C(=O)O)CO[C@H]2[C@H](C(=O)O)[C@H]21 [LY-379268]
*A* 26

*Q* GET /values?readout=Population Tubulin-Different-Phenotype (%)&item= CN1CCN(c2nc3cc(C(F)(F)F)ccc3n3cccc23)CC1.O=C(O)/C=C\C(=O)O.O=C(O)/C=C\C(=O)O
*A* 22

*Q* GET /values?readout=Population Tubulin-Different-Phenotype (%)&item= COc1ccc2c(c1)C(C(=O)N(Cc1ccc(N(C)C)cc1)c1ccc(C(C)C)cc1)CCC2.Cl (stereo not drawn)
*A* 27

* * *

tested on: HEK-293T; experiment: Multiplex assay against HEK293T; format: toxicity, cell-based; conditions: human, 12 h, 10 µM, compound concentration 10 uM, replicate 2
Measured Endpoint: Population Mitochondria Different-Phenotype (%)
In your response, put the unit directly after the numeric value.

1) O=S(=O)(c1ccccc1)c1cnc2c(N3CCNCC3)cccc2c1 [INTEPIRDINE] | 76%
2) CCCC(CCC)C(=O)O [VALPROIC ACID] | 49%
3) CC[C@H]1OC(=O)[C@H](C)[C@@H](O[C@H]2C[C@@](C)(OC)[C@@H](O)[C@H](C)O2)[C@H](C)[C@@H](O[C@@H]2O[C@H](C)C[C@H](N(C)C)[C@H]2O)[C@@]2(C)CC(C)=C(O2)[C@H](C)[C@@H](O)[C@]1(C)O | 91%
4) CSCC[C@H](NC=O)C(=O)N[C@@H](CC(C)C)C(=O)N[C@@H](Cc1ccccc1)C(=O)O | 64%
5) CN(C)c1ccnc2sc3c(=O)n(N4CCCCCC4)cnc3c12 | 76%

*Q* GET /values?readout=Population Mitochondria Different-Phenotype (%)&item= Cc1ccc(-c2ccc(F)cc2COc2ccc(CCC(=O)O)cc2)cc1
*A* 58%

* * *

test system: Fibroblast; experiment: Multiplex assay against human fibroblast; type: toxicity, cell-based; details: 12 h, 1 µM, compound concentration 1 uM, replicate 1
Measured Endpoint: Total Cell Count
Keep it simple and answer with nothing but the number.

1) Cc1ccc(/C(=C\CN2CCCC2)c2ccccn2)cc1 [TRIPROLIDINE] | 119
2) Cl.Clc1ccc2nsnc2c1NC1=NCCN1 [TIZANIDINE HYDROCHLORIDE] | 155
3) O=C(NCC(=O)N1CC[C@H](N[C@H]2CC[C@@](O)(c3ccc(-c4ncccn4)cn3)CC2)C1)c1cccc(C(F)(F)F)c1 [PF-4136309] | 142
4) O=C1COc2nccc(-c3ccccc3F)c2CN1Cc1cc(C(F)(F)F)cc(C(F)(F)F)c1 | 195
5) C[C@H]1[C@H]2CC[C@H]3[C@@H]4CC=C5C[C@@H](N(C)C)CC[C@]5(C)[C@H]4CC[C@]23CN1C [CONESSINE] | 174
6) C[C@H](NC(=O)c1c(C(F)F)nn(C)c1Oc1cccc(C(F)(F)F)c1)c1ccc(C(=O)O)cc1 [PALUPIPRANT] | 187
7) Cc1nc2ccc(Oc3ccc(F)cc3)cc2c(=O)n1C[C@H]1CCCN(C(C)C)C1.Cl | 184
8) CN(C)CCCc1cc(C(=O)Nc2ccc(-c3ccncc3)cc2)ccc1O.Cl.Cl | 122

*Q* GET /values?readout=Total Cell Count&item= CC(C)(C)c1ccc(S(=O)(=O)Nc2ccc(Cl)cc2C(=O)c2cc[n+]([O-])cc2)cc1 [VERCIRNON]
*A* 148

*Q* GET /values?readout=Total Cell Count&item= COc1c(C)cc(NC(=O)c2nn(Cc3ccc(F)cc3)c3c2CN(C(=O)c2ccc[nH]2)C[C@]3(C)C(N)=O)cc1C
*A* 95

*Q* GET /values?readout=Total Cell Count&item= COc1cc(C(=O)N(CCCc2ccccc2)Cc2ccc(CC(=O)O)cc2)cc(OC)c1C
*A* 160
